Measured on: T1, human CLDN6 (human, UniProt P56747 1-220)
T1 construct: Four-transmembrane protein, NP_067018; It was also expressed on CHO-K1 cells by cDNA transfection; In the immunoprecipitation it was the endogenous protein from NTERA-2 cell lysate; also called hCLDN6; claudin-6
T1 sequence: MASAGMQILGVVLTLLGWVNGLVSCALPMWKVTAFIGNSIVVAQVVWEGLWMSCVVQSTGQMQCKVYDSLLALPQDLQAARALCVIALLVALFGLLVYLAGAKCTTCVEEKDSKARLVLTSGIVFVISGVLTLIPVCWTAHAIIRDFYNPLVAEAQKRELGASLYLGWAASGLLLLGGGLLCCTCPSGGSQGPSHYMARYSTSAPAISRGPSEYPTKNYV
Test summary: flow cytometry (MFI) on transiently transfected 293T cells
Assay readout: binding result

Binder	Result
humanized anti-CLDN6 antibody H1L1 (antibody, human IgG1, kappa, L234A L235A, V domains shown, hH1 + hL1, with human IgG1 LALA constant region and human kappa chain; also called H1L1 antibody) VH: QVQLVQSGAEVKKPGASVKVSCKASGYTFTEYTMHWVRQAPGQGLEWMGGVNPNSGDTSYAQKFQGRVTITADTSTSTAYMELSSLRSEDTAVYYCARPGGYDVGYYAMDYWGQGTLVTVSS VL: DIQMTQSPSSLSASVGDRVTITCRASQDINNYLNWYQQKPGKAPKLLIYFTSRLHSGVPSRFSGSGSGTDYTLTISSLQPEDFATYYCQQGYPLPWTFGQGTKVEIKR	binds
humanized anti-CLDN6 antibody H3L3 (antibody, human IgG1, kappa, L234A L235A, V domains shown, hH3 + hL3, with human IgG1 LALA constant region and human kappa chain; also called H3L3 antibody) VH: EVQLVQSGAEVKKPGASVKVSCKTSGYTFTEYTMHWVRQAPGQGLEWMGGVNPNSGDTSYAQKFQGRVTLTVDKSTSTAYMELSSLRSEDTAVYYCARPGGYDVGYYAMDYWGQGTLVTVSS VL: DIQMTQSPSSLSASVGDRVTITCRASQDINNYLNWYQQKPGGAVKLLIYFTSRLHSGVPSRFSGSGSGTDYTLTISSLQPEDFATYYCQQGYPLPWTFGGGTKVEIKR	binds
humanized anti-CLDN6 antibody H1L3 (antibody, human IgG1, kappa, L234A L235A, V domains shown, hH1 + hL3, with human IgG1 LALA constant region and human kappa chain; also called H1L3 antibody) VH: QVQLVQSGAEVKKPGASVKVSCKASGYTFTEYTMHWVRQAPGQGLEWMGGVNPNSGDTSYAQKFQGRVTITADTSTSTAYMELSSLRSEDTAVYYCARPGGYDVGYYAMDYWGQGTLVTVSS VL: DIQMTQSPSSLSASVGDRVTITCRASQDINNYLNWYQQKPGGAVKLLIYFTSRLHSGVPSRFSGSGSGTDYTLTISSLQPEDFATYYCQQGYPLPWTFGGGTKVEIKR	binds
humanized anti-CLDN6 antibody H2L4 (antibody, human IgG1, kappa, L234A L235A, V domains shown, also called H2L4 antibody) VH: EVQLVQSGAEVKKPGASVKVSCKTSGYTFTEYTMHWVRQAPGKSLEWMGGVNPNSGDTSYAQKFQGRVTITADTSTSTAYMELSSLRSEDTAVYYCARPGGYDVGYYAMDYWGQGTLVTVSS VL: DIQMTQSPSSLSASVGDRVTITCRASQDINNYLNWYQQKPGGAVKLLIYFTSRLHSGVPSRFSGSGSGTDYTLTISSLQPEDFATYYCQQGNTLPWTFGGGTKVEIKR	binds
